Details: in acetonitrile, 288.15 K
measure: solubility (mole fraction)

[
  {
    "compound.string": "O=C(O)c1ccco1",
    "measure": "solubility (mole fraction)",
    "value.measured": 0.057
  }
]

---

Settings: in toluene, 323.15 K

[
  {
    "compound.string": "O=C(O)c1ccco1",
    "solubility (mole fraction)": 0.034
  }
]

---

Settings: in acetonitrile, 293.15 K

[
  {
    "compound.string": "O=C(O)c1ccco1",
    "solubility (mole fraction)": 0.064
  }
]

---

Details: in methanol, 308.15 K
measure: solubility (mole fraction)

[
  {
    "compound.string": "O=C(O)c1ccco1",
    "value.measured": 0.504
  }
]

---

Conditions: in MIBK, 313.15 K

[
  {
    "compound.string": "O=C(O)c1ccco1",
    "solubility (mole fraction)": 0.195
  }
]

---

Conditions: in 1,2-dichloroethane, 298.15 K

[
  {
    "compound.string": "O=C(O)c1ccco1",
    "solubility (mole fraction)": 0.029
  }
]

---

Settings: in n-hexane, 298.15 K
measure: solubility (mole fraction)

[
  {
    "compound.string": "O=C(O)c1ccco1",
    "value.measured": 0.001
  }
]

---

Details: in toluene, 283.15 K

[
  {
    "compound.string": "O=C(O)c1ccco1",
    "solubility (mole fraction)": 0.005
  }
]

---

Conditions: in toluene, 293.15 K

[
  {
    "compound.string": "O=C(O)c1ccco1",
    "solubility (mole fraction)": 0.008
  }
]

---

Settings: in acetonitrile, 328.15 K

[
  {
    "compound.string": "O=C(O)c1ccco1",
    "solubility (mole fraction)": 0.208
  }
]

---

Settings: in methanol, 288.15 K

[
  {
    "compound.string": "O=C(O)c1ccco1",
    "solubility (mole fraction)": 0.393
  }
]

---

Conditions: in toluene, 298.15 K

[
  {
    "compound.string": "O=C(O)c1ccco1",
    "solubility (mole fraction)": 0.011
  }
]

---

Settings: in MIBK, 328.15 K

[
  {
    "compound.string": "O=C(O)c1ccco1",
    "solubility (mole fraction)": 0.26
  }
]

---

Conditions: in acetonitrile, 283.15 K

[
  {
    "compound.string": "O=C(O)c1ccco1",
    "solubility (mole fraction)": 0.046
  }
]

---

Details: in methanol, 328.15 K
measure: solubility (mole fraction)

[
  {
    "compound.string": "O=C(O)c1ccco1",
    "value.measured": 0.607
  }
]

---

Settings: in acetonitrile, 303.15 K
measure: solubility (mole fraction)

[
  {
    "compound.string": "O=C(O)c1ccco1",
    "value.measured": 0.093
  }
]

---

Details: in diisopropyl ether, 313.15 K
measure: solubility (mole fraction)

[
  {
    "compound.string": "O=C(O)c1ccco1",
    "measure": "solubility (mole fraction)",
    "value.measured": 0.077
  }
]

---

Conditions: in diisopropyl ether, 323.15 K

[
  {
    "compound.string": "O=C(O)c1ccco1",
    "solubility (mole fraction)": 0.097
  }
]

---

Details: in toluene, 313.15 K
measure: solubility (mole fraction)

[
  {
    "compound.string": "O=C(O)c1ccco1",
    "value.measured": 0.021
  }
]

---

Conditions: in n-hexane, 318.15 K
measure: solubility (mole fraction)

[
  {
    "compound.string": "O=C(O)c1ccco1",
    "value.measured": 0.002
  }
]

---

Conditions: in acetonitrile, 308.15 K

[
  {
    "compound.string": "O=C(O)c1ccco1",
    "solubility (mole fraction)": 0.115
  }
]

---

Conditions: in diisopropyl ether, 303.15 K
measure: solubility (mole fraction)

[
  {
    "compound.string": "O=C(O)c1ccco1",
    "measure": "solubility (mole fraction)",
    "value.measured": 0.061
  }
]

---

Settings: in 1,2-dichloroethane, 288.15 K

[
  {
    "compound.string": "O=C(O)c1ccco1",
    "solubility (mole fraction)": 0.017
  }
]

---

Conditions: in diisopropyl ether, 328.15 K
measure: solubility (mole fraction)

[
  {
    "compound.string": "O=C(O)c1ccco1",
    "measure": "solubility (mole fraction)",
    "value.measured": 0.108
  }
]

---

Details: in toluene, 328.15 K
measure: solubility (mole fraction)

[
  {
    "compound.string": "O=C(O)c1ccco1",
    "measure": "solubility (mole fraction)",
    "value.measured": 0.045
  }
]

---

Details: in diisopropyl ether, 283.15 K

[
  {
    "compound.string": "O=C(O)c1ccco1",
    "solubility (mole fraction)": 0.035
  }
]
